Data credit: patent US6376497B1

Tested on: Candida albicans A. 10231
assayText: In vitro antifungal activity, microbroth dilution MIC
Type: cell-based
testSettings: C. albicans A. 10231, RPMI-1640, 35° C., 4 to 48 hours
outcomeMeasure: Minimal inhibitory concentration (MIC)
Put down the number, then write its unit next to it.

Use these answered entries as a reference point.
{"compound": "FC(=Cc1cccc(F)c1)OCC1COC(Cn2ccnc2)(c2ccc(F)cc2F)O1 (mixture of isomers)", "Minimal inhibitory concentration (MIC)": "25.0 µg/mL"}
{"compound": "COc1cccc(C=C(F)OCC2COC(Cn3ccnc3)(c3ccc(F)cc3F)O2)c1 (mixture of isomers)", "Minimal inhibitory concentration (MIC)": "25.0 µg/mL"}
{"compound": "Cc1cccc(C=C(F)OCC2COC(Cn3cncn3)(c3ccc(Cl)cc3Cl)O2)c1 (mixture of isomers)", "Minimal inhibitory concentration (MIC)": "25.0 µg/mL"}
{"compound": "FC(OCC1COC(Cn2ccnc2)(c2ccc(F)cc2F)O1)=C(c1cccc(Cl)c1)C(F)(F)F (mixture of isomers)", "Minimal inhibitory concentration (MIC)": "12.5 µg/mL"}
{"compound": "Cc1ccc(C(=C(F)OCC2COC(Cn3ccnc3)(c3ccc(Cl)cc3Cl)O2)C(F)(F)F)cc1 (stereo not shown)", "Minimal inhibitory concentration (MIC)": "6.25 µg/mL"}

Cc1ccc(C(=C(F)OCC2COC(Cn3ccnc3)(c3ccc(F)cc3F)O2)C(F)(F)F)cc1 (mixture of isomers) has a reported Minimal inhibitory concentration (MIC) of 12.5 µg/mL

// field: Minimal inhibitory concentration (MIC); key: FC(=Cc1ccc(Cl)cc1)OCC1COC(Cn2cncn2)(c2ccc(Cl)cc2Cl)O1 (mixture of isomers) ; value = 6.25 µg/mL

====

System: Candida albicans IFO. 1385
assayText: In vitro antifungal activity, microbroth dilution MIC
Type: cell-based
testSettings: RPMI-1640, 35° C., 4 to 48 hours, no growth observed
Text: […]
outcomeMeasure: Minimal inhibitory concentration(MIC), C. albicans IFO. 1385
Include the unit after the number when you answer.

Worked examples, 3 molecules total:
{"molecule": "FC(Oc1ccc(OCC2COC(Cn3ccnc3)(c3ccc(Cl)cc3Cl)O2)cc1)=C(c1ccc2c(c1)OCO2)C(F)(F)F (mixture of isomers)", "result": "3.13 µg/mL"}
{"molecule": "Cc1ccc(C(=C(F)Oc2ccc(OCC3COC(Cn4cncn4)(c4ccc(Cl)cc4Cl)O3)cc2)C(F)(F)F)cc1 (mixture of isomers)", "result": "1.56 µg/mL"}
{"molecule": "FC(Oc1ccc(OCC2COC(Cn3ccnc3)(c3ccc(F)cc3F)O2)cc1)=C(c1cc(Cl)cc(Cl)c1)C(F)(F)F (mixture of isomers)", "result": "3.13 µg/mL"}

GET /value?item= Cc1cccc(C(=C(F)N2CCN(c3ccc(OCC4COC(Cn5ccnc5)(c5ccc(Cl)cc5Cl)O4)cc3)CC2)C(F)(F)F)c1 (mixture of isomers) &field=Minimal inhibitory concentration(MIC), C. albicans IFO. 1385 returns 1.56 µg/mL

====

Tested on: Aspergillus furnigatus B. 19119
assayText: In vitro antifungal activity, microbroth dilution MIC
Format: cell-based
testSettings: A furnigatus B. 19119, RPMI-1640, 35° C., 4 to 48 hours
outcomeMeasure: Minimal inhibitory concentration (MIC) (µg/mL)
Write it as a number; the unit µg/mL goes unstated.

{"compound": "CCc1ccc(C=C(F)OCC2COC(Cn3ccnc3)(c3ccc(F)cc3F)O2)cc1 (mixture of isomers) [Ex. 39]", "targetOfAssay": "Aspergillus furnigatus B. 19119", "Minimal inhibitory concentration (MIC) [µg/mL]": 12.5}
{"compound": "Cc1cc(C)c(C=C(F)OCC2COC(Cn3ccnc3)(c3ccc(Cl)cc3Cl)O2)cc1C (stereo not drawn) [Ex. 7]", "targetOfAssay": "Aspergillus furnigatus B. 19119", "Minimal inhibitory concentration (MIC) [µg/mL]": 6.25}
{"compound": "CCc1ccc(C=C(F)OCC2COC(Cn3ccnc3)(c3ccc(Cl)cc3Cl)O2)cc1 (stereo not drawn) [Ex. 4]", "targetOfAssay": "Aspergillus furnigatus B. 19119", "Minimal inhibitory concentration (MIC) [µg/mL]": 6.25}
{"compound": "FC(=Cc1ccc(F)cc1)OCC1COC(Cn2ccnc2)(c2ccc(Cl)cc2Cl)O1 (stereo not drawn) [Ex. 16]", "targetOfAssay": "Aspergillus furnigatus B. 19119", "Minimal inhibitory concentration (MIC) [µg/mL]": 3.13}
{"compound": "Cc1cc(C=C(F)OCC2COC(Cn3ccnc3)(c3ccc(F)cc3F)O2)ccc1Cl (mixture of isomers) [Ex. 50]", "targetOfAssay": "Aspergillus furnigatus B. 19119", "Minimal inhibitory concentration (MIC) [µg/mL]": 6.25}

// next item, Minimal inhibitory concentration (MIC) requested
For record FC(OCC1COC(Cn2ccnc2)(c2ccc(F)cc2F)O1)=C(c1ccccc1)C(F)(F)F (mixture of isomers) [Ex. 52] the listed Minimal inhibitory concentration (MIC) is 1.56
